Measured values drawn from patent US20120165304A1 for this set.

# test_target: human 5-HT2C receptor (Homo sapiens, UniProt P28335, I156V/I160V/N158S)
# Sequence (P28335 33-458 I156V/N158S/I160V limits assumed): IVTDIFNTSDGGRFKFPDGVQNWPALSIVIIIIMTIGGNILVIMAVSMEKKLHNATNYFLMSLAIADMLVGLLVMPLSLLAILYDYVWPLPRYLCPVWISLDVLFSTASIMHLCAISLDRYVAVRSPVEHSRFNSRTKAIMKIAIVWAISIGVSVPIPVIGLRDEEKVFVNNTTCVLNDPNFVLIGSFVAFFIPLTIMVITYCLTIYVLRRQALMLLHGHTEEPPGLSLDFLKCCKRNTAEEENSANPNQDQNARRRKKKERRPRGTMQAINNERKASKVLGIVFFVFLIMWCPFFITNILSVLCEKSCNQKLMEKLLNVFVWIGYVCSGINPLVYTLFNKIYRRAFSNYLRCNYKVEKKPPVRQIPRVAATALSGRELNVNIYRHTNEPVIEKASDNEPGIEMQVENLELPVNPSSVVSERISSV
# assay_text: cell-based
Documented log10(EC50) across a set of molecules
The figures below represent log10 of EC50, where EC50 is stated in nM.

Ask | Complete the entry with log10(EC50) for O=C(C1CN(c2c3c(nc4ccnn24)CCNCC3)C1)N1CCC2(CC1)Oc1ccccc1O2 [Example 31.186]
Reply | 1.83

Ask | Complete the entry with log10(EC50) for c1cc2nc3c(c(N4CC(OC5CCCC5)C4)n2n1)CCNCC3 [Example 20.5]
Reply | 2.55

Ask | Complete the entry with log10(EC50) for O=C(C1CN(c2c3c(nc4ccnn24)CCNCC3)C1)N1CCC(Oc2ccccc2Cl)CC1 [Example 31.145]
Reply | 1.97

Ask | Complete the entry with log10(EC50) for CC1CNCCc2c1nc1ccnn1c2N1CCCCC1 (centres unmarked) [Example 3]
Reply | 3.26

Ask | Complete the entry with log10(EC50) for FC(F)(F)c1cccc(N2CCN(c3c4c(nc5ccnn35)CCNCC4)CC2)c1 [Example 7.3]
Reply | 2.68

Ask | Complete the entry with log10(EC50) for CC(C)C(NC(=O)C1CN(c2c3c(nc4ccnn24)CCNCC3)C1)C(F)(F)F (centres unmarked) [Example 37.104]
Reply | 2.03

Ask | Complete the entry with log10(EC50) for C=C1CCN(C(=O)C2CN(c3c4c(nc5ccnn35)CCNCC4)C2)CC1 [Example 31.229]
Reply | 2.03

Ask | Complete the entry with log10(EC50) for Cn1c(C2CN(c3c4c(nc5ccnn35)CCNCC4)C2)nc2ccc(F)cc21 [Example 34.4]
Reply | 1.38

====

# test_target: human 5-HT2C receptor (Homo sapiens, UniProt P28335, I156V/I160V/N158S)
# assay_text: cell-based
Documented pEC50 across a set of molecules
# log scale: pEC50 equals minus log10 of the concentration in mol/L

Solved cases (5 shown):
{"molecule": "CCCCN1CCCN(C(=O)C2CN(c3c4c(nc5ccnn35)CCN(C)CC4)C2)CC1 [Example 36.36]", "pEC50": 6.59}
{"molecule": "CC1(C)CC(NC(=O)C2CN(c3c4c(nc5ccnn35)CCNCC4)C2)CC(C)(C)N1 [Example 37.7]", "pEC50": 7.82}
{"molecule": "Cn1c(C2CN(c3c4c(nc5ccnn35)CCNCC4)C2)nc2cc(C#N)ccc21 [Example 34.18]", "pEC50": 6.41}
{"molecule": "Fc1ccc2[nH]c(C3CN(c4c5c(nc6ccnn46)CCNCC5)C3)nc2c1 [Example 34.14]", "pEC50": 6.43}
{"molecule": "c1cc2nc3c(c(N4CCCOCC4)n2n1)CCNCC3 [Example 1]", "pEC50": 6.04}

Ask | Complete the entry with pEC50 for CN(Cc1ccc(C(C)(C)C)cc1)C(=O)C1CN(c2c3c(nc4ccnn24)CCNCC3)C1 [Example 31.162]
Reply | 6.73

Ask | Complete the entry with pEC50 for CCn1c(C2CN(c3c4c(nc5ccnn35)CCNCC4)C2)nc2cc(F)ccc21 [Example 34.39]
Reply | 6.18

Ask | Complete the entry with pEC50 for C[C@@H]1C[C@H](C)CN(C(=O)C2CN(c3c4c(nc5ccnn35)CCN(C)CC4)C2)C1 [Example 36.15]
Reply | 6.81

Ask | Complete the entry with pEC50 for CN1CCc2nc3ccnn3c(N3CC(C(=O)NC4CC(C)(C)NC(C)(C)C4)C3)c2CC1 [Example 36.9]
Reply | 6.42
